Target: human IDO1 (Homo sapiens)
Experiment: Assessment of human IDO-1 inhibitory activity in HEK cells (human IDO1/HEK293 cells, kynurenine read-out with Ehrlich reagent, absorbance 490 nm)
Format: cell-based
Parameters: expressed in transfected cells
Conditions: HEK Human IDO-1 cellular assay
REPORTED METRIC: IC50

Problem: What measured IC50 goes with CCC(CC(=O)O)c1cc(F)c(N(CC(C)C)CC(C)C)c(NC(=O)Cc2ccc(C)cc2F)c1 (single isomer, unassigned) [Example 1094 E1] ?
Solution: < 5 nM

Problem: What measured IC50 goes with COCC(CC(=O)O)c1cc(F)c(N(CC(C)C)CC(C)C)c(NC(=O)Nc2ccc(C)cc2)c1 (single isomer, unassigned) [Example 1186] ?
Solution: < 5 nM

Problem: What measured IC50 goes with CCC(CC(=O)O)c1ccc(N2CCOC[C@H]2C(C)C)c(Nc2cnc(OCC3CC3)nc2)c1 (single isomer, unassigned) [Example 905] ?
Solution: > 50 nM

Problem: What measured IC50 goes with CCN(c1ccc([C@H](COC)CC(=O)O)cc1NC(=O)Nc1ccc(OC)cc1F)C1CCOCC1 (single isomer, unassigned) [Example 435] ?
Solution: > 50 nM

Problem: What measured IC50 goes with CCC(CC(=O)O)c1ccc(N2CCOC[C@H]2C(C)C)c(NC(=O)Nc2ccc(C)cc2)c1 (single isomer, unassigned) [Example 895] ?
Solution: > 50 nM

Problem: What measured IC50 goes with CCC(CC(=O)O)c1ccc(N(CC)C2CCCOC2)c(Nc2ccc(C#N)cc2)c1 (single isomer, unassigned) [Example 70] ?
Solution: < 5 nM

Problem: What measured IC50 goes with CC[C@@H](CC(=O)O)c1ccc(N(CC(C)(C)O)C2CCCCC2)c(Nc2ccc(F)cc2)c1 (single isomer, unassigned) [Example 225] ?
Solution: < 5 nM

Problem: What measured IC50 goes with CCOc1ncc(Nc2cc([C@@H](CC)CC(=O)NS(C)(=O)=O)ccc2N(CC)C2CCOCC2)cn1 (stereo in doubt) [Example 1076] ?
Solution: < 50 nM

Problem: What measured IC50 goes with CCC(CC(=O)O)c1ccc(N(CC)C2CCCOC2)c(Nc2cnc(OC)nc2)c1 (single isomer, unassigned) [Example 71] ?
Solution: < 50 nM

Problem: What measured IC50 goes with COCC(CC(=O)O)c1ccc(N(CC(C)C)C2CCOCC2)c(NC(=O)Nc2ccc(C)cc2)c1 (single isomer, unassigned) [Example 1216] ?
Solution: < 50 nM

Problem: What measured IC50 goes with CCN(c1ccc(C(CC(=O)O)c2ccccc2)cc1NC(=O)Nc1cc(C)on1)C1CCOCC1 (single isomer, unassigned) [Example 587] ?
Solution: > 50 nM

Problem: What measured IC50 goes with CC[C@@H](CC(=O)O)c1ccc(N2CCC[C@H]2C(C)(C)O)c(NC(=O)Nc2ccc(C)cc2)c1 (single isomer, unassigned) [Example 769] ?
Solution: > 50 nM

Problem: What measured IC50 goes with CCOc1ccc(Nc2cc(C(C)CC(=O)O)ccc2N(CC(C)(C)O)C2CCCCC2)c(F)c1 (single isomer, unassigned) [Example 56] ?
Solution: < 50 nM

Problem: What measured IC50 goes with Cc1nc2ccc(Nc3cc(C(C)(C)CC(=O)O)ccc3N(CC(C)C)CC(C)C)cc2s1 [Example 146] ?
Solution: > 50 nM

Problem: What measured IC50 goes with CCC(CC(=O)O)c1ccc(N(CC2CC2)C2CCOCC2)c(Nc2ccc3nc(C)sc3c2)c1 (single isomer, unassigned) [Example 701] ?
Solution: < 50 nM

Problem: What measured IC50 goes with CCOc1ccc(NC(=O)Nc2cc(C(COC)CC(=O)O)ccc2N(CC(C)C)C2CCOCC2)c(F)c1 (single isomer, unassigned) [Example 1222] ?
Solution: < 50 nM

Problem: What measured IC50 goes with CCC(CC(=O)O)c1ccc(N2CCC[C@H]2C(C)(C)F)c(NC(=O)Nc2ccc(Cl)cc2F)c1 (single isomer, unassigned) [Example 786] ?
Solution: > 50 nM

Problem: What measured IC50 goes with COCC(CC(=O)O)c1ccc(N(CC2CC2)C2CCOCC2)c(Nc2ccc(C#N)cc2)c1 (single isomer, unassigned) [Example 691] ?
Solution: < 5 nM

Problem: What measured IC50 goes with CC[C@H](CC(=O)O)c1ccc(N(CC)C2CCOCC2)c(NC(=O)Nc2ccc(Cl)cc2)c1 (single isomer, unassigned) [Example 531] ?
Solution: < 5 nM

Problem: What measured IC50 goes with COCC(CC(=O)OC)c1ccc(N(CC(C)C)C2CCCCC2)c(NC(=O)Nc2ccc(C)cc2)c1 (racemic) [Example 1223] ?
Solution: > 50 nM

Problem: What measured IC50 goes with CC[C@@H](CC(=O)O)c1ccc(N(CC)C2CCOCC2)c(Nc2ccc(OCC3CC3)cc2)c1 (single isomer, unassigned) [Example 476] ?
Solution: < 5 nM

Problem: What measured IC50 goes with CCC(CC(=O)O)c1ccc(N(CC(C)C)C2CCCCC2)c(Nc2ccc(F)cc2)c1 (single isomer, unassigned) [Example 311] ?
Solution: < 5 nM

Problem: What measured IC50 goes with COCC(CC(=O)O)c1ccc(N(CC(C)C)CC(C)C)c(NC(=O)Nc2cncnc2)c1 (single isomer, unassigned) [997-1] ?
Solution: > 50 nM

Problem: What measured IC50 goes with CCC(CC(=O)O)c1ccc(N2CCOC[C@H]2C(C)C)c(Nc2ccc3nc(C)sc3c2)c1 (single isomer, unassigned) [Example 892] ?
Solution: < 50 nM

Problem: What measured IC50 goes with CCC(CC(=O)O)c1ccc(N2CCOC[C@H]2C(C)C)c(Nc2ccc3c(c2)OC(F)(F)O3)c1 (single isomer, unassigned) [Example 904] ?
Solution: < 5 nM

====

Target: human IDO1 (Homo sapiens)
Experiment: Assessment of human IDO-1 inhibitory activity in HEK cells (human IDO1/HEK293 cells, kynurenine read-out with Ehrlich reagent, absorbance 490 nm)
Assay type: cell-based
Set-up: expressed in transfected cells
Settings: HEK Human IDO-1 cellular assay
pIC50: −log10 of the molar value.
So I've got a bunch of molecules here, and I need their pIC50 values.

Problem: What measured pIC50 goes with CC[C@H](CC(=O)O)c1ccc(N(CC)C2CCOCC2)c(Nc2ccc3nc(C)sc3c2)c1 (single isomer, unassigned) ?
Solution: > 7.30

Problem: What measured pIC50 goes with CC[C@H](CC(=O)O)c1ccc(N(CC)C2CCOCC2)c(Nc2ccc(Cl)c(OC)c2)c1 (single isomer, unassigned) ?
Solution: > 7.30

Problem: What measured pIC50 goes with CC[C@H](CC(=O)O)c1ccc(N(CC2CC2)CC(C)(C)O)c(Nc2ccc(F)cc2)c1 (single isomer, unassigned) ?
Solution: > 7.30

Problem: What measured pIC50 goes with Cc1ccc(CC(=O)Nc2cc(C(C)CC(=O)O)ccc2N(CC(C)C)CC(C)C)cc1 (single isomer, unassigned) [Example 954] ?
Solution: > 7.30

Problem: What measured pIC50 goes with CC[C@H](CC(=O)O)c1ccc(N(CC)C2CCOCC2)c(Nc2ccc(Cl)cc2)c1 (single isomer, unassigned) ?
Solution: > 8.30

Problem: What measured pIC50 goes with CCC(CC(=O)O)c1ccc(N(CC(C)C)C2CCCCC2)c(Nc2ccc3c(c2)OC(F)(F)O3)c1 (single isomer, unassigned) [Example 299] ?
Solution: > 8.30

Problem: What measured pIC50 goes with CCc1ccc(Nc2cc(C(CC)CC(=O)O)ccc2N2CCOC[C@H]2C(C)C)cc1 (single isomer, unassigned) ?
Solution: > 8.30

Problem: What measured pIC50 goes with CCc1cnc(Nc2cc(C(CC)CC(=O)O)ccc2N(CC(C)C)C2CCCCC2)nc1 (single isomer, unassigned) ?
Solution: > 8.30

Problem: What measured pIC50 goes with CCN(c1ccc([C@@H](COC)CC(=O)O)cc1NC(=O)Nc1cc(C)no1)C1CCOCC1 (single isomer, unassigned) ?
Solution: < 7.30

Problem: What measured pIC50 goes with CC[C@H](CC(=O)O)c1ccc(N2CCOC[C@@H]2C(C)C)c(Nc2ccc(C#N)cc2)c1 (single isomer, unassigned) ?
Solution: > 8.30

Problem: What measured pIC50 goes with `CCOc1ccc(NC(=O)Nc2cc(C(C)(C)CC(=O)O)ccc2N(CC)C2CCOCC2)cc1` ?
Solution: < 7.30

Problem: What measured pIC50 goes with CCN(c1ccc(C(C)CC(=O)O)cc1Nc1ccc(Cl)cc1)C1CCOCC1 (single isomer, unassigned) [Example 612 E1] ?
Solution: > 8.30

Problem: What measured pIC50 goes with CCC(CC(=O)O)c1cc(F)c(N(CC(C)C)CC(C)C)c(NC(=O)Cc2ccc(C)cc2F)c1 (racemic) [Example 1083] ?
Solution: > 8.30

====

Molecular target: human IDO1 (Homo sapiens, UniProt P14902)
Sequence (P14902 whole entry): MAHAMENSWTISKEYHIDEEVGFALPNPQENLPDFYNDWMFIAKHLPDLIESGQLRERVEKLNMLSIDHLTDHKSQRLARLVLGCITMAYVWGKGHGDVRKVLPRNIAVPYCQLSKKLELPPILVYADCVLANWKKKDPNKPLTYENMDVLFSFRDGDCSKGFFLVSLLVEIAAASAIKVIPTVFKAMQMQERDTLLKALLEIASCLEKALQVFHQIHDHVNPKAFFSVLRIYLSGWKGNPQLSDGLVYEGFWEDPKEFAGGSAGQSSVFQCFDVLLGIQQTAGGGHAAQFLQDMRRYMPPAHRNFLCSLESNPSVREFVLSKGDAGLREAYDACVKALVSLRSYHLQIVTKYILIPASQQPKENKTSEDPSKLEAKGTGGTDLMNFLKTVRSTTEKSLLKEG
Assay: Assessment of human IDO-1 inhibitory activity in HEK cells (human IDO1/HEK293 cells, kynurenine read-out with Ehrlich reagent, absorbance 490 nm)
Format: cell-based
Design: expressed in transfected cells
Details: HEK Human IDO-1 cellular assay
pIC50: −log10 of the molar value.
So I've got a bunch of compounds here, and I need their pIC50 values.

Problem: What measured pIC50 goes with CC[C@@H](CC(=O)O)c1ccc(N2CCOC[C@@H]2C(C)C)c(Nc2ccc(Cl)cc2)c1 (single isomer, unassigned) ?
Solution: > 7.30

Problem: What measured pIC50 goes with CC[C@H](CC(=O)O)c1ccc(N2CCOC[C@@H]2C(C)C)c(Nc2ccc3c(c2)OC(F)(F)O3)c1 (single isomer, unassigned) ?
Solution: > 7.30

Problem: What measured pIC50 goes with CC(C)CN(c1ccc(C(CC(=O)O)C2CC2)cc1NC(=O)Nc1ccc(Cl)cc1F)C1CCOCC1 (single isomer, unassigned) [Example 1199 Enantiomer 1] ?
Solution: > 8.30

Problem: What measured pIC50 goes with CCC(CC(=O)O)c1ccc(N2CCC[C@H]2C(C)(C)O)c(Nc2ccc(OCC3CC3)cc2)c1 (single isomer, unassigned) ?
Solution: < 7.30

Problem: What measured pIC50 goes with CCC(CC(=O)O)c1ccc(N2CCC[C@@H]2C(C)(C)O)c(Nc2ccc(C#N)cc2)c1 (single isomer, unassigned) ?
Solution: > 7.30

Problem: What measured pIC50 goes with CCN(c1ccc([C@H](COC)CC(=O)O)cc1NC(=O)Nc1ccc(OC(F)F)cc1)C1CCOCC1 (single isomer, unassigned) ?
Solution: < 7.30
